observable: logP
Lab note: write the figure by itself, no unit.

For orientation, consider the following solved cases.
INSERT INTO results (chemical_smiles, data_value) VALUES
  ('CCN(CC)Cc1cccc(C(=O)Oc2c(C)cccc2C)c1', 2.99),
  ('Cc1cccc(C)c1OC(=O)c1ccccc1CN1CCCC1', 3.09);

query: State its logP: `Cc1cccc(C)c1OC(=O)c1cccc(CN2CCCC2)c1`
result: 3.18

query: State its logP: `Cc1cccc(C)c1NC(=O)c1ccc(CN2CCOCC2)cc1`
result: 1.76

query: State its logP: `Cc1cccc(C)c1OC(=O)c1ccc(CN2CCCCC2)cc1`
result: 3.5

query: State its logP: `Cc1cccc(C)c1OCc1ccccc1CN1CCOCC1`
result: 4.16

query: State its logP: `Cc1cccc(C)c1OC(=O)c1ccc(CN2CCCC2)cc1`
result: 3.2
